Entries and their Efficacy
- System: Puccinia recondita
- method.description: Puccinia test (wheat)/preventive
- Format: in vivo
- condition.set: preventive, 500 ppm, evaluated 7-9 days after inoculation
Respond with the figure and its unit, in that order.

Take a look at these entries with their results.
{"columns": ["compound", "system", "Efficacy"],
 "data": [
  ["Cn1nc(C(F)F)c(C(=O)Nc2ccsc2CC[Si](C)(C)C)c1F", "Puccinia recondita", "100%"],
  ["CC(C)CCc1sccc1NC(=O)c1c(C(F)F)nn(C)c1Cl", "Puccinia recondita", "95%"],
  ["CC(=CC(C)(C)C)c1sccc1NC(=O)c1c(C(F)F)nn(C)c1Cl (mixture of isomers)", "Puccinia recondita", "95%"]
]}

Q: Any idea what Efficacy was measured for Cn1nc(C(F)F)c(C(=O)Nc2ccsc2CC2CCCCC2)c1Cl ?
Ans: 95%

Q: Any idea what Efficacy was measured for Cn1nc(C(F)F)c(C(=O)Nc2ccsc2C=CC(C)(C)C)c1Cl ?
Ans: 90%

---

- method.description: logP by HPLC on reversed-phase column (EEC Directive 79/831 Annex V.A8)
- Format: physicochemical
Entries and their logP
Please state the value as a number alone, without comment.

{"columns": ["compound", "property.label", "reported.value"],
 "data": [
  ["CC=C(c1ccccc1)c1sccc1NC(=O)c1c(C(F)F)nn(C)c1Cl", "logP", 3.70],
  ["Cn1nc(C(F)F)c(C(=O)Nc2cc(-c3ccc(Cl)cc3)cs2)c1F", "logP", 3.87],
  ["Cc1ccc(-c2ccsc2NC(=O)c2c(C(F)F)nn(C)c2F)cc1", "logP", 3.60],
  ["Cn1nc(C(F)F)c(C(=O)Nc2ccsc2C=C2CCCCC2)c1Cl", "logP", 4.25],
  ["CCCCC=Cc1sccc1NC(=O)c1c(C(F)F)nn(C)c1Cl", "logP", 4.12],
  ["CCC(C)C(C)c1sccc1NC(=O)c1c(C(F)F)nn(C)c1Cl (centres unmarked)", "logP", 3.99],
  ["Cn1nc(C(F)F)c(C(=S)Nc2ccsc2CC[Si](C)(C)C)c1F", "logP", 4.46],
  ["CCC(=Cc1sccc1NC(=O)c1c(C(F)F)nn(C)c1Cl)CC", "logP", 4.06],
  ["CCCC(CCC)c1sccc1NC(=O)c1c(C(F)F)nn(C)c1Cl", "logP", 4.54],
  ["Cn1nc(C(F)F)c(C(=O)Nc2ccsc2-c2ccccc2)c1F", "logP", 3.11]
]}

Switching to the query record.
Q: Any idea what logP was measured for CC(CCCC#N)c1sccc1NC(=O)c1c(C(F)F)nn(C)c1Cl (centres unmarked) ?
Ans: 2.57

---

- Tested on: Puccinia recondita
- method.description: Puccinia test (wheat)/preventive
- Assay type: in vivo
- condition.set: preventive, 500 ppm, evaluated 7-9 days after inoculation
property.label: Efficacy (%)
Numbers only here, please. The scale is %.

Take a look at these entries with their results.
{"columns": ["molecule", "Efficacy (%)"],
 "data": [
  ["CC=C(c1sccc1NC(=O)c1c(C(F)F)nn(C)c1Cl)C(C)C [Example 27]", 80],
  ["CC(C)CC(C)c1sccc1NC(=O)c1c(C(F)F)nn(C)c1Cl (centres unmarked) [Example 3]", 100],
  ["CCC(C)=C(C)c1sccc1NC(=O)c1c(C(F)F)nn(C)c1Cl [Example 28]", 80],
  ["CCC(CC)Cc1sccc1NC(=O)c1c(C(F)F)nn(C)c1Cl [Example 5]", 90]
]}

Q: Any idea what Efficacy was measured for CCC(C)C(C)Cc1sccc1NC(=O)c1c(C(F)F)nn(C)c1Cl (centres unmarked) [Example 13] ?
Ans: 90

---

Entries and their Efficacy
- Tested on: Puccinia recondita
- method.description: Puccinia test (wheat)/preventive
- Assay type: in vivo
- condition.set: preventive, 500 ppm, evaluated 7-9 days after inoculation
Numbers only here, please. The scale is %.

Take a look at these entries with their results.
{"columns": ["compound", "system", "Efficacy [%]"],
 "data": [
  ["CC(CCCC#N)c1sccc1NC(=O)c1c(C(F)F)nn(C)c1Cl (centres unmarked) [Example 11]", "Puccinia recondita", 100],
  ["CCCC(C)c1sccc1NC(=O)c1c(C(F)F)nn(C)c1Cl (centres unmarked) [Example 2]", "Puccinia recondita", 100],
  ["C=C(c1sccc1NC(=O)c1c(C(F)F)nn(C)c1Cl)C1CCCCC1 [Example 36]", "Puccinia recondita", 80],
  ["Cn1nc(C(F)F)c(C(=O)Nc2ccsc2CC[Si](C)(C)C)c1Cl [Example 18]", "Puccinia recondita", 100]
]}

Switching to the query record.
Q: Any idea what Efficacy was measured for Cn1nc(C(F)F)c(C(=O)Nc2ccsc2CCC(C)(C)C)c1Cl [Example 6] ?
Ans: 100

---

- Tested on: Puccinia recondita
- method.description: Puccinia test (wheat)/preventive
- Type: in vivo
- condition.set: preventive, 500 ppm, evaluated 7-9 days after inoculation
Entries and their Efficacy
Numbers only here, please. The scale is %.

Take a look at these entries with their results.
{"columns": ["compound", "reported.value"],
 "data": [
  ["CC(c1sccc1NC(=O)c1c(C(F)F)nn(C)c1Cl)C1CCCCC1 (stereo not shown) [Example 21]", 95],
  ["CCC(c1sccc1NC(=O)c1c(C(F)F)nn(C)c1Cl)C(C)C (stereo not shown) [Example 9]", 80],
  ["CC(C)CC(C)c1sccc1NC(=O)c1c(C(F)F)nn(C)c1F (stereo not shown) [Example 4]", 100]
]}

Q: Any idea what Efficacy was measured for CC(C)CCC(C)c1sccc1NC(=O)c1c(C(F)F)nn(C)c1Cl (stereo not shown) [Example 16] ?
Ans: 100

Q: Any idea what Efficacy was measured for CCC=C(CCC)c1sccc1NC(=O)c1c(C(F)F)nn(C)c1Cl (mixture of isomers) [Example 32] ?
Ans: 80

Q: Any idea what Efficacy was measured for CCC(=Cc1sccc1NC(=O)c1c(C(F)F)nn(C)c1Cl)CC [Example 24] ?
Ans: 90

Q: Any idea what Efficacy was measured for CC(CC(C)(C)C)c1sccc1NC(=O)c1c(C(F)F)nn(C)c1Cl (stereo not shown) [Example 17] ?
Ans: 100

Q: Any idea what Efficacy was measured for CCC(C)C(C)c1sccc1NC(=O)c1c(C(F)F)nn(C)c1Cl (stereo not shown) [Example 10] ?
Ans: 90

---

- System: Puccinia recondita
- method.description: Puccinia test (wheat)/preventive
- Assay type: in vivo
- condition.set: preventive, 500 ppm, evaluated 7-9 days after inoculation
- Description: The plants remain for 48 hours in an incubation cabinet at 22° C. and a relative atmospheric humidity of 100%. Then the plants are placed in a greenhouse at a temperature of approximately 20° C. and a relative atmospheric humidity of approximately 80%.
The threshold is inclusive: Efficacy of exactly 90% counts as criterion met; values below receive criterion not met.

Example results:
{"columns": ["molecule", "system", "answer.label"],
 "data": [
  ["CCCCC(C)c1sccc1NC(=O)c1c(C(F)F)nn(C)c1Cl (centres unmarked) [Example 7]", "Puccinia recondita", "criterion met"],
  ["CCCCC(C)c1sccc1NC(=O)c1c(C(F)F)nn(C)c1Cl (centres unmarked) [Example 8]", "Puccinia recondita", "criterion met"],
  ["CCC=C(C)c1sccc1NC(=O)c1c(C(F)F)nn(C)c1Cl (mixture of isomers)", "Puccinia recondita", "criterion not met"]
]}

Q: Could you verify whether the entry CCCC(CCC)c1sccc1NC(=O)c1c(C(F)F)nn(C)c1Cl shows Efficacy of no less than 90%?
Ans: criterion not met
